Numbers sourced from PubChem BioAssay (EPA / NIEHS).

# test-name: TOX21_p53_BLA_p4_viability: Viability Assessment in the Tox21 HCT-116 p53 Agonism Beta-lactamase Assay, Phase 4 (AID 2283597);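 note: hits lower the luminescence signal meaning cytotoxicity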
Inconclusive results are not listed. Calls of active or inactive are those of the source. Rule for the calls: active = hit-call score of the fitted dose curve at least 0.9, where 1 is the maximum; inconclusive = response in the unintended direction; inactive = score below 0.9.
Answer with one of the outcomes T (active), F (inactive)

Solved cases below.
CCC(C)Nc1ccc(NC(C)CC)cc1 (centres undefined) ... T
CC1(C)S[C@@H]2[C@H](NC(=O)C(c3ccccc3)S(=O)(=O)O)C(=O)N2[C@H]1C(=O)O (some centres undefined) ... F
O=C1[C@H]2CCCC[C@H]2C(=O)N1CCCCN1CCN(c2nsc3ccccc23)CC1 ... F
O=C(Nc1ccc(Oc2ccc(Cl)cc2)c(Cl)c1)c1cc(I)cc(I)c1O ... T
Oc1ccc(Sc2ccc(O)cc2)cc1 ... F
CC1COc2ccccc2N1 (centres undefined) ... F
O=C1NCN(c2ccccc2)C12CCN(CCCC(c1ccc(F)cc1)c1ccc(F)cc1)CC2 ... T
O=C1OC2(c3ccc(O)cc3Oc3cc(O)ccc32)c2ccc(N=C=S)cc21 ... F

Task: Assay outcome for `CC(=O)Oc1ccc(C2(c3ccc(OC(C)=O)cc3)Oc3ccccc3NC2=O)cc1` : what was it?
Output: F

---

# target-desc: Cellular tumor antigen p53 (Homo sapiens) (UniProt P04637)
# Sequence (P04637 whole entry, looked up): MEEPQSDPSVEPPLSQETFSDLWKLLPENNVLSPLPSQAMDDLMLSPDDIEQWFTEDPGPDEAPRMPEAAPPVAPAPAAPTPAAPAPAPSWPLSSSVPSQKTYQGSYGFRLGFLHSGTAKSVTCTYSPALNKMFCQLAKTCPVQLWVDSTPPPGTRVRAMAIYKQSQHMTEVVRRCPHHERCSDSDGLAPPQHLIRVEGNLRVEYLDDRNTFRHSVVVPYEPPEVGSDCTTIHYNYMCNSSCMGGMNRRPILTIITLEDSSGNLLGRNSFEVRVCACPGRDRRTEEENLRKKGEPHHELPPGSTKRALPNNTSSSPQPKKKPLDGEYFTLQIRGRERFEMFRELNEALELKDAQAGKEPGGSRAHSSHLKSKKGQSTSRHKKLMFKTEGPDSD
# test-name: TOX21_p53_BLA_p3_ratio: Tox21 HCT-116 p53 Agonism Beta-lactamase Assay, Ratio, Phase 3 (AID 2283596)
Records with an inconclusive call do not appear. Active and inactive are the calls of the source. Rule for the calls: active = hit-call score of the fitted dose curve at least 0.9, where 1 is the maximum; inconclusive = response in the unintended direction; inactive = score below 0.9.
Answer with one of the outcomes yes = active, no = inactive

CCCCCCCCNC(C)C(O)c1ccc(SC(C)C)cc1 (centres undefined) ... yes

Task: Assay outcome for `COc1cccc2c1[C@@H]1CN(CCCCn3c(=O)[nH]c4c(sc5ncc(-c6ccccc6)nc54)c3=O)C[C@@H]1CO2` : what was it?
Output: no

Task: Assay outcome for `O=C1c2ccccc2C(=O)c2cc(O)ccc21` : what was it?
Output: no

Task: Assay outcome for `CC(=O)c1ccc2c(c1)N(CCCN1CCN(CCO)CC1)c1ccccc1S2` : what was it?
Output: no

Task: Assay outcome for NC(N)=NCC1COc2ccccc2O1 (centres undefined) : what was it?
Output: no

Task: Assay outcome for COCC1=C(C(=O)OC(C)OC(=O)OC(C)C)N2C(=O)[C@@H](NC(=O)/C(=N\OC)c3csc(N)n3)[C@H]2SC1 (some centres undefined) : what was it?
Output: no

Task: Assay outcome for `CC(C)[C@@H](N)C(=O)O` : what was it?
Output: no

Task: Assay outcome for `CCC1(CO)COCOC1` : what was it?
Output: no

Task: Assay outcome for `O=S(=O)(O)C(F)(F)F` : what was it?
Output: no

Task: Assay outcome for `O=C(O)c1cc(=O)[nH]c(=O)[nH]1` : what was it?
Output: no

---

# target-desc: Cellular tumor antigen p53 (Homo sapiens) (UniProt P04637)
# test-name: TOX21_p53_BLA_p5_ratio: Tox21 HCT-116 p53 Agonism Beta-lactamase Assay, Ratio, Phase 5 (AID 2283599)
Records with an inconclusive call do not appear. The source made the active and inactive calls. How the source made its calls: active means hit-call score of the fitted dose curve at least 0.9, where 1 is the maximum; inconclusive means response in the unintended direction; inactive means score below 0.9.
Answer with one of the outcomes Y for active, N for inactive

CCCCCCCCCCCC(=O)N(CCO)CCO ... N

Task: Assay outcome for `CN(C)CCOCCN(C)CCO` : what was it?
Output: N
